Cited source for all entries: BindingDB's records for PubMed 35777269

Biological target: Protein Wnt-3a (Human, UniProt P56704)
Sequence (P56704 whole entry): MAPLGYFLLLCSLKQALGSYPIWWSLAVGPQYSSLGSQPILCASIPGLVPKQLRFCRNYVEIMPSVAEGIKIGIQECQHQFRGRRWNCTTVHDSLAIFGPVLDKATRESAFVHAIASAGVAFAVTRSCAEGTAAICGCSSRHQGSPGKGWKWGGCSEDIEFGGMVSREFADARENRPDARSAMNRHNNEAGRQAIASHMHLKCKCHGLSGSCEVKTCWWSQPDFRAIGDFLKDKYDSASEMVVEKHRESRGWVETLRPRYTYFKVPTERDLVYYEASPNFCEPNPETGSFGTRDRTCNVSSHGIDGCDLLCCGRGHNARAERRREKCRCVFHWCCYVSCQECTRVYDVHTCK
Assay: Inhibition of recombinant human Wnt3a in HEK293 cells assessed as Wnt signalling by measuring reduction in relative luminescence units incubated for 24 hrs by luciferase reporter assay
MEASURE: IC50 (nM)
Field: numeric (nM). Do not append units.

Qu. Hello, I am looking for reported IC50 with Protein Wnt-3a (Human, UniProt P56704) for Cc1ccccc1-n1nnc(C(=O)Nc2ccc3ccccc3n2)c1C . Could you help?
Ans. 4.1
